Target: T1, FAT domain of human FAK (892–1052) (human, UniProt Q05397 892-1052)
T1 chain: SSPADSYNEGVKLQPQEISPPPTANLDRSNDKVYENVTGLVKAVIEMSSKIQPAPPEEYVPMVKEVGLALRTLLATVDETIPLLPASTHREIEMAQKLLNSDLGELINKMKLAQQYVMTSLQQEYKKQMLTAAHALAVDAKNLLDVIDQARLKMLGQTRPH
Experiment: MST
Where no end group is shown, it is not given here.
Quantity name: Kd (µM)
// return numeric value only (unit: µM, not printed)

Previously resolved entries follow.
- Binder: "EAWDLDDILQSLQGQ (also: N-terminal FITC-Ahx only in labelled form, predicted LD motif of human C16orf71; also called CP071; source: synthetic peptide, bought: GenScript) [C16orf71 LD motif peptide]"
  Kd, µM: 17.2
- Binder: "ATDELDALLASLTENLID (also: N-terminal FITC-Ahx only in labelled form, predicted LD motif of human EPB41L5 (Band 4.1-like protein 5); also called E41L5; YMO1; source: synthetic peptide, bought: GenScript) [EPB41L5 (Band 4.1-like protein 5) LD motif peptide]"
  Kd, µM: 13

From here, focus on the item given below.
Data request: Name the recorded Kd of the binder listed here: DAALDDLIDTLGGP (also: N-terminal FITC-Ahx only in labelled form) [CAST LD motif peptide]
Data returned: 178
